Origin of measurements: PubChem BioAssay (NCI)

test system: UACC-257 melanoma; assay: NCI-60 one-dose screen, 48 h (100 = growth as untreated, 0 = no growth, -100 = all killed); conditions: 10 µM unless noted
This is part of a sample that, as a whole, favours compounds with a hit. Of some 83,000 tested, about 20% had one in any assay.
Output schema: class label derived from growth. Mapping: lower range = under 60%, middle range = from 60% up to 80%, upper range = 80% and over

[[record]]
compound = "O=C(O)C(O)C(O)C(=O)O.[NH-]C1CCCCC1[NH-].[Pt+2] (stereo not drawn)"
group = "upper range"


Exercise: Given C[C@@H]1CCC2=C(CCC[C@]2(C)C(=O)O)[C@@]1(C)CCc1ccoc1 , name the class its growth places it in.
Solution: upper range

Exercise: Given C=C(CN1CCN(c2cccc(C(F)(F)F)n2)CC1)c1ccc(C(=O)Nc2ccccc2N)cc1 , name the class its growth places it in.
Solution: lower range
